Cited source: ChEMBL document CHEMBL1139752

- Tested on: Mycobacterium tuberculosis
- method_notes: Antimycobacterial activity against isoniazid resistant Mycobacterium tuberculosis ATCC 35822
- Assay type: functional
MIC listing for selected molecules.
Provide the reading as a plain figure in µg/mL.

mol	MIC / µg/mL
CO[C@H]1/C=C/O[C@@]2(C)Oc3c(C)c(O)c4c(c3C2=O)C2=N[C@]3(C[C@@H](c5ccccc5)N[C@@H](c5ccccc5)C3)NC2=C(NC(=O)/C(C)=C\C=C\[C@H](C)[C@H](O)[C@@H](C)[C@H](O)[C@H](C)[C@H](OC(C)=O)[C@@H]1C)C4=O	0.02

Please find the next molecule below.
[in] State the recorded MIC for this entry: CO[C@H]1/C=C/O[C@@]2(C)Oc3c(C)c(O)c4c(O)c(c(/C=N/N5CCN(C)CC5)c(O)c4c3C2=O)NC(=O)/C(C)=C\C=C\[C@H](C)[C@H](O)[C@@H](C)[C@@H](O)[C@@H](C)[C@H](OC(C)=O)[C@@H]1C
[out] 0.02
